Assay: Decomposition temperature in TG-DTA
Type: physicochemical
Conditions: 100 ml/min nitrogen stream; temperature rise 10° C./min
metric_name: Decomposition Temperature in TG-DTA (°C)
Only the number, expressed in °C, is required.

So for Cc1[nH]c2ccc(F)cc2c1C1=C([O-])/C(=C/C2=[N+](C)c3ccccc3C2(C)C)C1=O [Compound No. 22] , the logged Decomposition Temperature in TG-DTA turned out to be 295

Lab book: Decomposition Temperature in TG-DTA of CC(C)CC[N+]1=C(/C=C2\C(=O)C(c3cn(C)c4ccccc34)=C2[O-])C(C)(C)c2ccccc21 [Compound No. 5] noted as 271

# molecule Cn1cc(C2=C([O-])/C(=C/C3=[N+](C)c4ccc5ccccc5c4C34CCCCC4)C2=O)c2ccccc21 [Compound No. 4] ; its Decomposition Temperature in TG-DTA = 259

Cc1c(C2=C([O-])/C(=C/C3=[N+](C)c4ccccc4C3(C)C)C2=O)c2ccccc2n1C [Compound No. 14] yielded Decomposition Temperature in TG-DTA of 287

For this molecule ( Cn1c(-c2ccccc2)c(C2=C([O-])/C(=C/C3=[N+](C)c4ccccc4C3(C)C)C2=O)c2ccccc21 [Compound No. 26] ), measured Decomposition Temperature in TG-DTA is 273
